Data origin: ChEMBL document CHEMBL3407347

Target: Glycogen synthase kinase-3 beta (Homo sapiens)
Sequence (P49841 whole entry): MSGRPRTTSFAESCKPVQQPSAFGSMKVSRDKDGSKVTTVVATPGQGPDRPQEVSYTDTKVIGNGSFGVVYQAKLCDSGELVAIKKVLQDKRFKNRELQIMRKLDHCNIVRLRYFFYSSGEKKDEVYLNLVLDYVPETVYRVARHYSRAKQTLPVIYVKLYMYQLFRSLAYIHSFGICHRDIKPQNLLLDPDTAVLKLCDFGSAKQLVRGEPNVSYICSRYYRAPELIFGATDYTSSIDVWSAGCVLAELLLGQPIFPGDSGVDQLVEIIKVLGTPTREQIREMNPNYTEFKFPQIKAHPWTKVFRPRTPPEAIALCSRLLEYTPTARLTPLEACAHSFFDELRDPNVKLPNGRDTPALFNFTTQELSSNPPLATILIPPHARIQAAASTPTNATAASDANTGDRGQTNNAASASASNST
pIC50: −log10 of the molar value.
Property name: pIC50

Below are worked cases with known answers.
Smiles | pIC50
COc1cc(-c2ccnc(NC(=O)C3CC3)c2)cnc1C(N)=O | 8.15
NC(=O)c1cnc(-c2ccnc(NC(=O)C3CC3)c2)s1 | 7.89
NC(=O)c1ccc(-c2ccnc(NC(=O)C3CC3)c2)cn1 | 7.05
COc1nc(-c2ccnc(NC(=O)C3CC3)c2)ncc1C(N)=O | 8.23

(a) COc1cc(-c2ccnc(NC(=O)C3CC3)c2)ncc1C(N)=O
(b) NC(=O)c1cnc(-c2ccnc(NC(=O)C3CC3)c2)cc1OCC(F)(F)F
(c) NC(=O)c1sc(-c2ccnc(NC(=O)C3CC3)c2)nc1OC1CCC1
(d) O=C1NCCc2cc(-c3ccnc(NC(=O)C4CC4)c3)ccc21
Order the records so the highest pIC50 appears first and the lowest last. Respond with an ordered listing of the labels, as requested. c, d, b, a
(c: 9.43, d: 8.62, b: 8.17, a: 7.66)
